All values here come from paper PMC7567097.

ASSAY COMMENT: in vitro
RECORDED CONDITIONS: human, CC50 (µM) Replicate 2
Please use Satisfied for CC50 under 30 µM and Not satisfied for everything else, ties included.

# COMPOUND, CLASS NAME
records = [
    ("CCC(CC)O[C@@H]1C=C(C(=O)O)C[C@H](N)[C@H]1NC(C)=O [Oseltamivir carboxylate]", "Not satisfied"),
    ("Nc1ccn([C@@H]2O[C@@](CO)(CCl)[C@@H](O)[C@H]2F)c(=O)n1 [ALS-8112]", "Not satisfied"),
    ("Cc1cccc(C)c1OCC(=O)N[C@@H](Cc1ccccc1)[C@@H](O)C[C@H](Cc1ccccc1)NC(=O)[C@H](C(C)C)N1CCCNC1=O [Lopinavir]", "Not satisfied"),
    ("O=C(Nc1ccc([N+](=O)[O-])cc1Cl)c1cc(Cl)ccc1O [Niclosamide]", "Satisfied"),
    ("CCC[C@@]1(CCc2ccccc2)CC(O)=C([C@H](CC)c2cccc(NS(=O)(=O)c3ccc(C(F)(F)F)cn3)c2)C(=O)O1 [Tipranavir]", "Satisfied"),
    ("CC(C)c1nc(CN(C)C(=O)N[C@@H](CCN2CCOCC2)C(=O)N[C@H](CC[C@H](Cc2ccccc2)NC(=O)OCc2cncs2)Cc2ccccc2)cs1 [Cobicistat]", "Not satisfied"),
]
